target: T1, Human 1to19 peptide (human); experiment: ELISA, periplasmic extract on biotinylated peptide
T1 construct: First 19 N-terminal amino acids of human CXCR2, captured on neutravidin; also called human CXCR2 1 to19 peptide; 1-19 Nter peptide
T1 peptide: MEDFNMESDSFEDFWKGED-biotin
Ends that are not written are not given here.
Known ratio of binding signal relative to blank control of a selection of binders
METRIC NAME: ratio of binding signal relative to blank control (ratio)

>  <BINDER>
97A9 (VHH, Tested as periplasmic extract (pAX50) and as purified His6-tagged protein (pAX100); also called 097A09; not shown: C-terminal c-myc tag and His6 tag coded by the vector) VHH: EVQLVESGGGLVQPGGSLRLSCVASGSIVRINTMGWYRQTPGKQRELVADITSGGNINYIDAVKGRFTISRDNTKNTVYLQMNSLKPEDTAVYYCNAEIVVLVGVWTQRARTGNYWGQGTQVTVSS

>  <READING UNIT>
ratio

>  <REPORTED MEASUREMENT>
0.8

$$$$
>  <BINDER>
139A8 (VHH, Tested as periplasmic extract only; also called 139A08; not shown: C-terminal c-myc tag and His6 tag coded by the vector) VHH: EVQLVESGGGLVQAGGSLRLSCAASGRSFSRSAMGWLRQAPGKEREFVAGISWGGDNSYYADSVKGRFTISRDNAKNTVSLQMNSLKPQDTAVYYCAARYRGGAAVAGWEYWGQGTQVTVSS

>  <READING UNIT>
ratio

>  <REPORTED MEASUREMENT>
1

$$$$
>  <BINDER>
137A8 (VHH, Tested as periplasmic extract only; also called 137A08; not shown: C-terminal c-myc tag and His6 tag coded by the vector) VHH: EVQLVESGGGLVQPGGSLRLSCAASGSTLAYYTVGWFRRAPGKEREGISCISSSDGSTYYADSVKGRFTISRDNAKNTVYLQMNSLKPEDTAVYYCAADRRTDCKKGRVGSGSWGQGTQVTVSS

>  <READING UNIT>
ratio

>  <REPORTED MEASUREMENT>
1.2

$$$$
>  <BINDER>
54B12 (VHH, Tested as periplasmic extract (pAX50) and as purified His6-tagged protein (pAX100); also called 054B12; not shown: C-terminal c-myc tag and His6 tag coded by the vector) VHH: EVQLVESGGGLVQAGGSLTLSCAVSGSTFRINTMGWYRRAPGKQRELVAARDRGGYINYVDSVKGRFTVSRDNAKPTMYLQMNSLKPEDTAVYYCHAGTQDRTGRNFDRWGQGTQVTVSS

>  <READING UNIT>
ratio

>  <REPORTED MEASUREMENT>
75.5

$$$$
